biological target: Probable G-protein coupled receptor 174 (Homo sapiens); experiment: Inverse agonist activity at human GPR174 assessed as fold decrease in Gs signalling activity by CRA; format: functional; conditions: filed as inverse agonist
Sequence (Q9BXC1 whole entry): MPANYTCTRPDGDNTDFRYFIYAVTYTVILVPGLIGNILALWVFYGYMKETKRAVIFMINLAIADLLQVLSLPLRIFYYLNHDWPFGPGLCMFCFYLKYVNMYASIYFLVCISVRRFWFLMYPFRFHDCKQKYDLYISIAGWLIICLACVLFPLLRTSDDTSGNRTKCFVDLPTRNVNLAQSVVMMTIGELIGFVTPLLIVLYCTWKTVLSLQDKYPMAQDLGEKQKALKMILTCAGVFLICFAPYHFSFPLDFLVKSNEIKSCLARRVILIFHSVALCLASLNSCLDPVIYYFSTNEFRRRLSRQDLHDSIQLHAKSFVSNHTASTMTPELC
Quick rule: fold change (FC) of at least 1 means Fulfilled, below that means Not fulfilled.

Take a look at these entries with their results.
// query Confirm if fold change (FC) reported for the compound O=[N+]([O-])c1cc(F)c(N2CCCCC2)cc1N1CCN(S(=O)(=O)c2ccccc2)CC1 is 1 or above.
// result Not fulfilled

// query Param item: O=C1CCCC2=C1C(c1ccc(OCCO)cc1)C1=C(N2)c2ccccc2C1=O (centres undefined)
// result Fulfilled

// query Param item: O=[N+]([O-])c1cc(F)c(N2CCCCCC2)cc1N1CCN(S(=O)(=O)c2ccccc2)CC1
// result Fulfilled

// query Param item: O=C1CCCC2=C1C(c1ccc([N+](=O)[O-])cc1)C1=C(N2)c2ccccc2C1=O (centres undefined)
// result Fulfilled

// query Param item: Cc1ccc(S(=O)(=O)N2CCN(c3cc(N4CCC(C)CC4)c(F)cc3[N+](=O)[O-])CC2)cc1
// result Fulfilled

// query Param item: CC(C)(C)Oc1ccc(C2C3=C(CCCC3=O)NC3=C2C(=O)c2ccccc23)cc1 (centres undefined)
// result Fulfilled

// query Param item: O=C(c1ccccc1)N1CCN(c2cc(N3CCCCC3)c(F)cc2[N+](=O)[O-])CC1
// result Not fulfilled

// query Param item: CC(C)C(=O)N1CCN(c2cc(N3CCCCC3C)c(F)cc2[N+](=O)[O-])CC1 (centres undefined)
// result Not fulfilled

// query Param item: CC1CCN(c2cc(N3CCN(C(=O)c4cccs4)CC3)c([N+](=O)[O-])cc2F)CC1
// result Not fulfilled

// query Param item: O=C1CCCC2=C1C(c1ccc(OC(F)F)cc1)C1=C(N2)c2ccccc2C1=O (centres undefined)
// result Fulfilled

With those in mind, consider the next compound.
// query Confirm if fold change (FC) reported for the compound CCCCOc1ccc(C2C3=C(CCCC3=O)NC3=C2C(=O)c2ccccc23)cc1 (centres undefined) is 1 or above.
// result Fulfilled
